target: T1, Human Tau 2N4R, wild type, recombinant full length (human, UniProt P10636 2-758); experiment: SPR BIAcore, mAb captured by anti-human IgG, Tau flowed, 1:1 Langmuir
T1 construct: Full length 2N4R isoform; monomer in SPR and ELISA; heparin-induced aggregates or seeds in the functional assays; also called Tau441; Tau-441
T1 sequence (P10636 other isoform, or with tags, fused parts or gaps limits assumed): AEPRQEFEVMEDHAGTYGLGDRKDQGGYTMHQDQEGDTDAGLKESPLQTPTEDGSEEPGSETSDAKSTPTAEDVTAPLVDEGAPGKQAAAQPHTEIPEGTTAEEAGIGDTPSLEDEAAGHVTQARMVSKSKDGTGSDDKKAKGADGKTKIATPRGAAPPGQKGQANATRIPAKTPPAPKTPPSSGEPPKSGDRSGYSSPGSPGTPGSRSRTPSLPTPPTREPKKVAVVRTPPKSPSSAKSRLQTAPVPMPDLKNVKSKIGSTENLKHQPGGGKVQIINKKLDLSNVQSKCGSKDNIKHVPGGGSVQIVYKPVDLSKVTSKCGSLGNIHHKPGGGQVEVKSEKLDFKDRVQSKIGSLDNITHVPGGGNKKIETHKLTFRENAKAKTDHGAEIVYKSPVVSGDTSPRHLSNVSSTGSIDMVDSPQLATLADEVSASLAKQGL
pKd: −log10 of the molar value.

Binder: 7G6-HCzu18-LCzu12 (antibody, human IgG1, kappa, V domains shown, humanized, human IgG1 kappa) VH: EVQLLESGGGLVQPGGSLRLSCAASGYTFTTYWITWVRQAPGKGLEWVSDIYPGSSICNYNEKFKSRFTISRDNSKNTLYLQMNSLRAEDTAVYYCAREDGYDAWFAYWGQGTLVTVSS VL: DVQMTQSPSSLSASVGDRVTITCRSSQSILHSNGNTYLEWYQQKPGKAPKLLICKVSNRFSGVPSRFSGSGSGTDFTLTISSLQPEDFATYYCFQGSHVPFTFGQGTKLEIKR
pKd: 10.09
//
Binder: 7G6-HCzu17-LCzu12 (antibody, human IgG1, kappa, V domains shown, humanized, human IgG1 kappa) VH: EVQLLESGGGLVQPGGSLRLSCAASGYTFTTYWITWVRQAPGKGLEWVSDIYPGSSICNYNEKFKSRFTISVDNSKNTLYLQMNSLRAEDTAVYYCAREDGYDAWFAYWGQGTLVTVSS VL: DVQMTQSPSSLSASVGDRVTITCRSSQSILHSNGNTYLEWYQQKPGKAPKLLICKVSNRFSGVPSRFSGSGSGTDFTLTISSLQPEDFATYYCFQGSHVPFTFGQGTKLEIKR
pKd: 10.14
//
Binder: 7G6-HCzu14-LCzu12 (antibody, human IgG1, kappa, V domains shown, humanized, human IgG1 kappa) VH: EVQLLESGGGLVQPGGSLRLSCAASGYTFTTYWITWVRQAPGKGLEWVGDIYPGSSICNYADKFKGRFTISVDNSKSTAYLQMNSLRAEDTAVYYCAREDGYDAWFAYWGQGTLVTVSS VL: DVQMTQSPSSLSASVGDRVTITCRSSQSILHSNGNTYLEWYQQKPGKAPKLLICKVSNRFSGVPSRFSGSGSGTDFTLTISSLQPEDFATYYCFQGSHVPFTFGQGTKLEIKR
pKd: 9.88
